Assay Explanation: soluble fraction after stress (log2 fold change); higher = more stays soluble; pooled small domains, quantitative proteomics;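 note: 20 min heating vs room temperature control held 20 min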
Test Settings: stress: 75 degC
Result Type: soluble fraction (log2)
Answer field: number only, no words.

INSERT INTO assay_data (sequence_content, result_type, reported_value) VALUES
  ('HMTSRFITTEEGTLYVDADGRKVSGWQTIDGSRYYFDEHGIRQSGTIEVNGETYVLDEDGVL', 'soluble fraction (log2)', 0.0516),
  ('HMNAEGLIGREAVALTAVDAHGGRVRLGGEEWSARLSKENGGVSRLSVGDPVRVTDIDGAIAVVAP', 'soluble fraction (log2)', 0.118),
  ('HMESIEAGTFELDNKTSIDISEDEANLLNKMFEELTETNSKDMYGVMVADEAGFNEILEFAKENL', 'soluble fraction (log2)', 0.00321);

Query: Can you share its soluble fraction (log2)? I mean this sequence: HMPSKTFYNLSQEKQQKIIDASEKEFSNNLYQDVSLNQIIKNSNISRGSFYMYFTDKEDLYFYLLNEY
Reply: -0.731
